test system: H1975 cells; test: CCK-8 antiproliferation assay, H1975; details: Homo sapiens, NCI-H1975, read-out: Inhibitory efficacy, H1975 cells; 16uM; given as fraction; Repeat 1-3
So I've got a bunch of molecules here, and I need their inhibition at 16 µM values.
Numbers only, in %.

Molecule: COCCOc1cc2ncnc(Nc3cccc(-c4cn(Cc5ccccc5)nn4)c3)c2cc1OCCOC [e1]
Test system: H1975 cells
Assay readout: inhibition at 16 µM
Endpoint value: 37.9

Molecule: COCCOc1cc2ncnc(Nc3cccc(-c4cn(-c5ccc(C)cc5)nn4)c3)c2cc1OCCOC
Test system: H1975 cells
Assay readout: inhibition at 16 µM
Endpoint value: 87.6

Molecule: COCCOc1cc2ncnc(Nc3cccc(-c4cn(-c5ccccc5OC)nn4)c3)c2cc1OCCOC
Test system: H1975 cells
Assay readout: inhibition at 16 µM
Endpoint value: 59.9

Molecule: COCCOc1cc2ncnc(Nc3cccc(-c4cn(-c5ccc(OC)cc5OC)nn4)c3)c2cc1OCCOC
Test system: H1975 cells
Assay readout: inhibition at 16 µM
Endpoint value: 47.1

Molecule: COCCOc1cc2ncnc(Nc3cccc(-c4cn(CCc5ccccc5)nn4)c3)c2cc1OCCOC
Test system: H1975 cells
Assay readout: inhibition at 16 µM
Endpoint value: 8.81

// each listed molecule needs a value for inhibition at 16 µM
1. CCOc1cccc(-n2cc(-c3cccc(Nc4ncnc5cc(OCCOC)c(OCCOC)cc45)c3)nn2)c1
2. COCCOc1cc2ncnc(Nc3cccc(-c4cn(-c5ccc(Br)cc5)nn4)c3)c2cc1OCCOC
3. COCCOc1cc2ncnc(Nc3cccc(-c4cn(-c5ccccc5C(F)(F)F)nn4)c3)c2cc1OCCOC
4. COCCOc1cc2ncnc(Nc3cccc(-c4cn(-c5ccccc5Br)nn4)c3)c2cc1OCCOC
5. COCCOc1cc2ncnc(Nc3cccc(-c4cn(Cc5ccccc5Br)nn4)c3)c2cc1OCCOC

57.3
67.4
48
66.8
44.1

// each listed molecule needs a value for inhibition at 16 µM
1. COCCOc1cc2ncnc(Nc3cccc(-c4cn(Cc5cc(Br)cc(Br)c5)nn4)c3)c2cc1OCCOC
2. COCCOc1cc2ncnc(Nc3cccc(-c4cn(-c5ccccc5Cl)nn4)c3)c2cc1OCCOC
3. COCCOc1cc2ncnc(Nc3cccc(-c4cn(-c5ccc(F)cc5)nn4)c3)c2cc1OCCOC

96.1
64.1
54.1

----------
So I've got a bunch of compounds here, and I need their inhibition at 0.3 µM values.
biological target: wild-type EGFR (Homo sapiens); assay: EGFR kinase assay (ELISA); conditions: concentration 300 nM; one value per replicate column
Answers are plain numbers, in %.

Solved cases (4 shown):
Compound: COCCOc1cc2ncnc(Nc3cccc(-c4cn(-c5ccc(Br)cc5)nn4)c3)c2cc1OCCOC
Test system: wild-type EGFR (Homo sapiens)
inhibition at 0.3 µM, %: 36.5
--
Compound: COCCOc1cc2ncnc(Nc3cccc(-c4cn(Cc5ccccc5)nn4)c3)c2cc1OCCOC [e1]
Test system: wild-type EGFR (Homo sapiens)
inhibition at 0.3 µM, %: 34.2
--
Compound: COCCOc1cc2ncnc(Nc3cccc(-c4cn(-c5ccc(OC)c(OC)c5)nn4)c3)c2cc1OCCOC
Test system: wild-type EGFR (Homo sapiens)
inhibition at 0.3 µM, %: 6.7
--
Compound: COCCOc1cc2ncnc(Nc3cccc(-c4cn(CCc5ccccc5)nn4)c3)c2cc1OCCOC
Test system: wild-type EGFR (Homo sapiens)
inhibition at 0.3 µM, %: 42.1

// each listed compound needs a value for inhibition at 0.3 µM
1. COCCOc1cc2ncnc(Nc3cccc(-c4cn(-c5ccccc5C(F)(F)F)nn4)c3)c2cc1OCCOC
2. COCCOc1cc2ncnc(Nc3cccc(-c4cn(-c5ccccc5OC)nn4)c3)c2cc1OCCOC
3. COCCOc1cc2ncnc(Nc3cccc(-c4cn(-c5ccc(C)cc5)nn4)c3)c2cc1OCCOC

1. 27
2. 13.1
3. 20.3

Using known records, supply inhibition at 0.3 µM for COCCOc1cc2ncnc(Nc3cccc(-c4cn(-c5ccc(C)cc5O)nn4)c3)c2cc1OCCOC
25.3

----------
biological target: wild-type EGFR (Homo sapiens); test: EGFR kinase assay (ELISA); conditions: concentration 300 nM; one value per replicate column; 0.3 µM
Response field label: string, one of rule met (Inhibition strictly below 20) or rule not met.

Previously resolved entries follow.
Structure notation: COCCOc1cc2ncnc(Nc3cccc(-c4cn(Cc5ccccc5Br)nn4)c3)c2cc1OCCOC
Group: rule not met
//
Structure notation: CCOc1cccc(-n2cc(-c3cccc(Nc4ncnc5cc(OCCOC)c(OCCOC)cc45)c3)nn2)c1
Group: rule met
//
Structure notation: COCCOc1cc2ncnc(Nc3cccc(-c4cn(-c5ccc(Br)cc5)nn4)c3)c2cc1OCCOC
Group: rule not met
//
Structure notation: COCCOc1cc2ncnc(Nc3cccc(-c4cn(Cc5cc(Br)cc(Br)c5)nn4)c3)c2cc1OCCOC
Group: rule met
//
Structure notation: COCCOc1cc2ncnc(Nc3cccc(-c4cn(-c5ccc(OC)cc5OC)nn4)c3)c2cc1OCCOC
Group: rule not met

In plain terms, does COCCOc1cc2ncnc(Nc3cccc(-c4cn(CCc5ccccc5)nn4)c3)c2cc1OCCOC come in under 20 for Inhibition?
rule not met

In plain terms, does COCCOc1cc2ncnc(Nc3cccc(-c4cn(-c5ccc(OC)c(OC)c5)nn4)c3)c2cc1OCCOC come in under 20 for Inhibition?
rule met

In plain terms, does COCCOc1cc2ncnc(Nc3cccc(-c4cn(-c5ccc(C)cc5)nn4)c3)c2cc1OCCOC come in under 20 for Inhibition?
rule not met

----------
molecular target: UniProtKB P00533; assay: EGFR kinase assay (ELISA); conditions: read-out: IC50 (μM) EGFR; ELISA, 3 μmol/L ATP
Assay readout: IC50 (µM)
Give bare numbers, in µM.

Structure notation: COCCOc1cc2ncnc(Nc3cccc(-c4cn(-c5ccc(C)cc5O)nn4)c3)c2cc1OCCOC
Assay readout: IC50
Unit abbrev: µM
Endpoint value: 12.4

Print UniProtKB P00533 IC50 for COCCOc1cc2ncnc(Nc3cccc(-c4cn(Cc5cc(Br)cc(Br)c5)nn4)c3)c2cc1OCCOC .
13

----------
target: wild-type EGFR (Homo sapiens, UniProt P00533); experiment: EGFR kinase assay (ELISA); details: 0.3 nM; duplicate wells, calculated from A450; 0.0003 µM
Sequence (P00533 25-1210): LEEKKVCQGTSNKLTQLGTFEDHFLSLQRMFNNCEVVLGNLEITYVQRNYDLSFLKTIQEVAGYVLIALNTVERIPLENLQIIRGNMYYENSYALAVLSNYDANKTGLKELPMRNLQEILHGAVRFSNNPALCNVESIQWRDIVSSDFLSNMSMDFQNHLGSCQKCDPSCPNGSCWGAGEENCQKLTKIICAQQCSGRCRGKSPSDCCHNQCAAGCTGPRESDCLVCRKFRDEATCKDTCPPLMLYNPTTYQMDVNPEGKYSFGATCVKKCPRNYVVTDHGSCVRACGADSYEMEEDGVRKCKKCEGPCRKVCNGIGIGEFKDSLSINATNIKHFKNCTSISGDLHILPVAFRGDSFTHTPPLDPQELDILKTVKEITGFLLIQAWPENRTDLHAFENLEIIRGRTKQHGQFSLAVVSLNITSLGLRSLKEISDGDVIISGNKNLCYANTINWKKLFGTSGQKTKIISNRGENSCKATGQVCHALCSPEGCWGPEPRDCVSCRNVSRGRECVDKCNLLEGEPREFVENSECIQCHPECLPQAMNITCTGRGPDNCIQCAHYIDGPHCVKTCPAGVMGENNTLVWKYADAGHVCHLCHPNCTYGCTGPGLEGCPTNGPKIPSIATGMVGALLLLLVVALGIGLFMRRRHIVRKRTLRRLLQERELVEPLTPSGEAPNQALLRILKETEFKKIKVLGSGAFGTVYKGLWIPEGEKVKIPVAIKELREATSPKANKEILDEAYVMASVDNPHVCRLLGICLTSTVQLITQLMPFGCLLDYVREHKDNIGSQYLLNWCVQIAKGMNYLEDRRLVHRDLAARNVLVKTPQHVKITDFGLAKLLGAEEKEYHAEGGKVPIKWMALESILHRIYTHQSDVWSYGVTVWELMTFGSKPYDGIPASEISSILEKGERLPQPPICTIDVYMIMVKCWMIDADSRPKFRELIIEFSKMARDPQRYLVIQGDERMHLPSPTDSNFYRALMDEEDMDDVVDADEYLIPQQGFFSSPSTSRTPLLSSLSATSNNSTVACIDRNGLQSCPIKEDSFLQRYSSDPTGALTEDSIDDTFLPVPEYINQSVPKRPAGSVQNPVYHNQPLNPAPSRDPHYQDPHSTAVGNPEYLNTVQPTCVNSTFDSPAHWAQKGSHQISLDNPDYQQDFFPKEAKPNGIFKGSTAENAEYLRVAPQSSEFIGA
So I've got a bunch of compounds here, and I need their Inhibition values.
One number for each entry.

Solved cases (3 shown):
Structure notation: COCCOc1cc2ncnc(Nc3cccc(-c4cn(-c5ccc(F)cc5)nn4)c3)c2cc1OCCOC
Endpoint value: 3.39
--
Structure notation: COCCOc1cc2ncnc(Nc3cccc(-c4cn(-c5ccccc5Br)nn4)c3)c2cc1OCCOC
Endpoint value: 0.7055
--
Structure notation: COCCOc1cc2ncnc(Nc3cccc(-c4cn(-c5ccccc5Cl)nn4)c3)c2cc1OCCOC
Endpoint value: 7.895

Consider the additional compound presented here.
Using known records, supply Inhibition for COCCOc1cc2ncnc(Nc3cccc(-c4cn(-c5ccccc5F)nn4)c3)c2cc1OCCOC
10.6583

----------
target: wild-type EGFR (Homo sapiens); assay: EGFR kinase assay (ELISA); conditions: concentration 0.03 nM; one value per replicate column; 3e-05 µM
Assay readout: Inhibition
Answers are plain numbers.

Solved cases (5 shown):
Structure notation: COCCOc1cc2ncnc(Nc3cccc(-c4cn(-c5ccc(C)cc5O)nn4)c3)c2cc1OCCOC
Endpoint value: 7.547
--
Structure notation: COCCOc1cc2ncnc(Nc3cccc(-c4cn(-c5ccc(Br)cc5)nn4)c3)c2cc1OCCOC
Endpoint value: 5.109
--
Structure notation: CCOc1cccc(-n2cc(-c3cccc(Nc4ncnc5cc(OCCOC)c(OCCOC)cc45)c3)nn2)c1
Endpoint value: 4.587
--
Structure notation: COCCOc1cc2ncnc(Nc3cccc(-c4cn(-c5ccc(OC)cc5OC)nn4)c3)c2cc1OCCOC
Endpoint value: 9.36
--
Structure notation: COCCOc1cc2ncnc(Nc3cccc(-c4cn(-c5ccccc5OC)nn4)c3)c2cc1OCCOC
Endpoint value: 3.3195

// each listed compound needs a value for Inhibition
1. COCCOc1cc2ncnc(Nc3cccc(-c4cn(CCc5ccccc5)nn4)c3)c2cc1OCCOC
2. COCCOc1cc2ncnc(Nc3cccc(-c4cn(-c5ccc(C)cc5)nn4)c3)c2cc1OCCOC
3. COCCOc1cc2ncnc(Nc3cccc(-c4cn(-c5cccc([N+](=O)[O-])c5)nn4)c3)c2cc1OCCOC
4. COCCOc1cc2ncnc(Nc3cccc(-c4cn(Cc5ccccc5Br)nn4)c3)c2cc1OCCOC

[3.99, 6.151, 3.252, 14.7465]

----------
So I've got a bunch of molecules here, and I need their Inhibition values.
target: UniProtKB P00533; assay: EGFR kinase assay (ELISA); settings: concentration 300 nM; one value per replicate column; 0.3 µM
Answers are plain numbers.

Molecule: COCCOc1cc2ncnc(Nc3cccc(-c4cn(-c5ccc(C)cc5O)nn4)c3)c2cc1OCCOC [e18]
Inhibition: 17.1527
//
Molecule: COCCOc1cc2ncnc(Nc3cccc(-c4cn(-c5ccccc5OC)nn4)c3)c2cc1OCCOC [e11]
Inhibition: 8.091
//
Molecule: COCCOc1cc2ncnc(Nc3cccc(-c4cn(-c5ccccc5)nn4)c3)c2cc1OCCOC [e15]
Inhibition: 58.7259

// each listed molecule needs a value for Inhibition
1. COCCOc1cc2ncnc(Nc3cccc(-c4cn(Cc5ccccc5I)nn4)c3)c2cc1OCCOC [e2]
2. COCCOc1cc2ncnc(Nc3cccc(-c4cn(Cc5ccccc5)nn4)c3)c2cc1OCCOC [e1]

[35.7143, 43.6364]
